# MEASUREMENT_TARGET: BRD4 Bromodomain 1 (BRD4 BD1) (Homo sapiens, UniProt O60885)
# Construct: 44-168 and BRD4 BD2
# TEST_PROTOCOL: AlphaScreen binding assay, BRD4 BD1
# TEST_CONDITIONS: His-tagged BRD4 BD1 50 nM, biotinylated H4 (1-21) K5/8/12/16 tetra-acetylated peptide 50 nM, compounds listed under IC50 range headings
pIC50: −log10 of the molar value.
Below, each entry is listed alongside its reported pIC50.

- CHEMICAL_SMILES: "COC(=O)N1c2ccc(-c3cnn(C4CCNCC4)c3)c(Oc3ccc(C#N)cc3F)c2CC[C@@H]1C"
  MEASUREMENT_TARGET: "BRD4 Bromodomain 1 (BRD4 BD1) (Homo sapiens, UniProt O60885)"
  MEASURE: "pIC50"
  RESULT: "6.00 to 7.00"

Record CC(=O)N1c2ccc(-c3cnn(C4CC4)c3)c(Oc3ccccn3)c2CC[C@@H]1C . Reported pIC50: 6.00 to 7.00

Record CC(=O)N1c2ccc(-c3cnn(C4CC4)c3)c(OCC(N)=O)c2CC[C@@H]1C . Reported pIC50: 5.00 to 6.00

Record C[C@H]1CCc2c(ccc(-c3cnn4c3N(S(C)(=O)=O)CC4)c2OC2CCC2)N1C(=O)C1CC1 . Reported pIC50: 5.00 to 6.00

Record COC(=O)N1c2ccc(-c3cnn(C4CCNCC4)c3F)c(OC3CCC3)c2CC[C@@H]1C . Reported pIC50: 6.00 to 7.00

Record COC(=O)N1c2ccc(-c3cnn(C4CCNCC4)c3)c(Oc3cccc(OC)n3)c2CC[C@@H]1C . Reported pIC50: 6.00 to 7.00

Record CCCOc1c(-c2cccc(S(C)(=O)=O)c2)ccc2c1CC[C@H](C)N2C(C)=O . Reported pIC50: 5.00 to 6.00

Record C[C@H]1CCc2c(OC3CCC3)c(-c3cn[nH]c3)cc(F)c2N1C(=O)C1CC1 . Reported pIC50: 5.00 to 6.00

Record COC(=O)N1c2ccc(-c3csc(NC(C)=O)n3)c(OC3CCC3)c2CC[C@@H]1C . Reported pIC50: 5.00 to 6.00

Record CC(=O)N1c2ccc(-c3cnn(CC(C)(C)O)c3)c(OCCN(C)S(C)(=O)=O)c2CC[C@@H]1C . Reported pIC50: 5.00 to 6.00

Record COC(=O)N1c2ccc(-c3cnn(C4CC4)c3)c(OC3CN(C(C)C)C3)c2CC[C@@H]1C . Reported pIC50: 5.00 to 6.00

Record COC(=O)N1c2ccc(-c3cnn(C4CNC4)c3)c(Oc3ccc(F)c(F)c3)c2CC[C@@H]1C . Reported pIC50: 6.00 to 7.00

Record CC(=O)N1c2ccc(-c3cnn(C4CC4)c3)c(Oc3ncc(C)cn3)c2CC[C@@H]1C . Reported pIC50: 6.00 to 7.00

Record CC(=O)N1c2ccc(-c3cnn(C4CC4)c3)c(OCc3ccccn3)c2CC[C@@H]1C . Reported pIC50: 5.00 to 6.00

Record CC(=O)N1c2ccc(-c3ccc(N4CCCS4(=O)=O)cc3)c(OCC(=O)N(C)C)c2CC[C@@H]1C . Reported pIC50: 5.00 to 6.00

Record COC(=O)c1ccc(Oc2c(-c3cnn(C4CCNCC4)c3)ccc3c2CC[C@H](C)N3C(C)=O)nc1 . Reported pIC50: 5.00 to 6.00

Record CC(=O)N1c2ccc(-c3cnn(C4COC4)c3)c(OCCNS(C)(=O)=O)c2CC[C@@H]1C . Reported pIC50: 5.00 to 6.00

Record COC(=O)N1c2ccc(-c3cnn(C4CCNCC4)c3)c(Oc3cc(F)ccc3F)c2CC[C@@H]1C . Reported pIC50: 6.00 to 7.00

Record Cc1cc(Oc2c(-c3cnn(C4CCNCC4)c3)ccc3c2CC[C@H](C)N3C(=O)C2CC2)cc(C)n1 . Reported pIC50: 6.00 to 7.00

Record COC(=O)N1c2ccc(-c3cnn(C4CNC4)c3)c(Oc3cccc(Cl)c3)c2CC[C@@H]1C . Reported pIC50: 6.00 to 7.00

Record COC(=O)N1c2ccc(-c3cnn(C4CC4)c3)c(OCCF)c2CC[C@@H]1C . Reported pIC50: 5.00 to 6.00

Hello, the source for this data is patent US10611750B2, in case you need it.
